Substrate: NCc1c[nH]c2nc(N)[nH]c(=O)c12
Assay: [3H]-preQ1 incorporation into tRNA(Tyr), scintillation counting
Assay type: biochemical, Zymomonas mobilis
Conditions: 15 µM E. coli tRNA(Tyr), 200 mM HEPES pH 7.3, 20 mM MgCl2, 37°C, labelled compound
Measured kcat by item
Express it in s⁻¹; write the number only.

Solved entries (count: 2):
- Protein: "Z. mobilis Tgt (\"wild type\" Tgt = Tgt(Tyr106Phe)) (Zymomonas mobilis subsp. mobilis ZM4 = ATCC 31821; Y106F) (protein, recombinant from pET9d-ZM-Y106F in E. coli BL21(DE3)/pLysS, purified; homodimer; all variants including \"wild type\" carry Tyr106Phe) VEATAQETDRPRFSFSIAAREGKARTGTIEMKRGVIRTPAFMPVGTAATVKALKPETVRATGADIILGNTYHLMLRPGAERIAKLGGLHSFMGWDRPILTDSGGFQVMSLSSLTKQSEEGVTFKSHLDGSRHMLSPERSIEIQHLLGSDIVMAFDECTPYPATPSRAASSMERSMRWAKRSRDAFDSRKEQAENAALFGIQQGSVFENLRQQSADALAEIGFDGYAVGGLAVGEGQDEMFRVLDFSVPMLPDDKPHYLMGVGKPDDIVGAVERGIDMFDCVLPTRSGRNGQAFTWDGPINIRNARFSEDLTPLDSECHCAVCQKWSRAYIHHLIRAGEILGAMLMTEHNIAFYQQLMQKIRDSISEGRFSQFAQDFRARYFARNS"
  kcat, s⁻¹: 0.106
- Protein: "Z. mobilis Tgt (\"wild type\" Tgt = Tgt(Tyr106Phe)) (Zymomonas mobilis subsp. mobilis ZM4 = ATCC 31821; C158V/Y106F) (protein, recombinant from pET9d-ZM-Y106F in E. coli BL21(DE3)/pLysS, purified; homodimer; all variants including \"wild type\" carry Tyr106Phe) VEATAQETDRPRFSFSIAAREGKARTGTIEMKRGVIRTPAFMPVGTAATVKALKPETVRATGADIILGNTYHLMLRPGAERIAKLGGLHSFMGWDRPILTDSGGFQVMSLSSLTKQSEEGVTFKSHLDGSRHMLSPERSIEIQHLLGSDIVMAFDEVTPYPATPSRAASSMERSMRWAKRSRDAFDSRKEQAENAALFGIQQGSVFENLRQQSADALAEIGFDGYAVGGLAVGEGQDEMFRVLDFSVPMLPDDKPHYLMGVGKPDDIVGAVERGIDMFDCVLPTRSGRNGQAFTWDGPINIRNARFSEDLTPLDSECHCAVCQKWSRAYIHHLIRAGEILGAMLMTEHNIAFYQQLMQKIRDSISEGRFSQFAQDFRARYFARNS"
  kcat, s⁻¹: 0.035

Query: kcat; subject: Z. mobilis Tgt ("wild type" Tgt = Tgt(Tyr106Phe)) (Zymomonas mobilis subsp. mobilis ZM4 = ATCC 31821; C158V/V233G/Y106F) (protein, recombinant from pET9d-ZM-Y106F in E. coli BL21(DE3)/pLysS, purified; homodimer; all variants including "wild type" carry Tyr106Phe) VEATAQETDRPRFSFSIAAREGKARTGTIEMKRGVIRTPAFMPVGTAATVKALKPETVRATGADIILGNTYHLMLRPGAERIAKLGGLHSFMGWDRPILTDSGGFQVMSLSSLTKQSEEGVTFKSHLDGSRHMLSPERSIEIQHLLGSDIVMAFDEVTPYPATPSRAASSMERSMRWAKRSRDAFDSRKEQAENAALFGIQQGSVFENLRQQSADALAEIGFDGYAVGGLAGGEGQDEMFRVLDFSVPMLPDDKPHYLMGVGKPDDIVGAVERGIDMFDCVLPTRSGRNGQAFTWDGPINIRNARFSEDLTPLDSECHCAVCQKWSRAYIHHLIRAGEILGAMLMTEHNIAFYQQLMQKIRDSISEGRFSQFAQDFRARYFARNS 0.001
